Data origin, for the record: PubChem BioAssay (NCI)

Listing: TGI of selected compounds
- Tested on: UACC-257 melanoma
- TEST DETAILS: NCI tumour cell line growth inhibition, 48 h

Guide cases for TGI, answers given:
>  <COMPOUND>
O=C(N/N=C/c1ccncc1)c1ccc(F)cc1

>  <TGI>
> 40 µM

$$$$
>  <COMPOUND>
CC#CC#C/C(=C/C=CC(=O)OC)SC

>  <TGI>
> 100 µM

$$$$
>  <COMPOUND>
CCN(/N=C1\CC2C=CCN(C2)C(=O)Cc2c1[nH]c1ccccc21)S(=O)(=O)c1ccc(C)cc1 (configuration not stated)

>  <TGI>
> 100 µM

$$$$

input: Param item = COC(=O)C1=CCC2c3[nH]c4ccccc4c3CCN2C1 (configuration not stated) ; retrieve measured TGI.
output: > 354 µM

input: Param item = Cc1[nH]nc(C(=O)N/N=C/c2ccccc2Cl)c1N=NN(C)C ; retrieve measured TGI.
output: > 100 µM

input: Param item = CC(C)C(/C=C/c1ccc(Cl)cc1)=N\NC(=O)N/N=C(/C=C/c1ccc(Cl)cc1)C(C)C ; retrieve measured TGI.
output: > 100 µM

input: Param item = Cn1c(=S)[nH]c(N)c(Cc2ccccc2)c1=O ; retrieve measured TGI.
output: > 100 µM
